Let's look at some sequences and their measured furin cleavage Z-score.
biological target: furin, P09958; test: furin cleavage Z-score vs untreated control; higher = more cleavage, active = 3.5 or more, inactive = 1 or less, 8 variable residues between constant flanks; conditions: 30 min;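 further: purified furin at 1:10 enzyme:substrate in 50 mM HEPES pH 7.5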
Sequence (P09958 whole entry): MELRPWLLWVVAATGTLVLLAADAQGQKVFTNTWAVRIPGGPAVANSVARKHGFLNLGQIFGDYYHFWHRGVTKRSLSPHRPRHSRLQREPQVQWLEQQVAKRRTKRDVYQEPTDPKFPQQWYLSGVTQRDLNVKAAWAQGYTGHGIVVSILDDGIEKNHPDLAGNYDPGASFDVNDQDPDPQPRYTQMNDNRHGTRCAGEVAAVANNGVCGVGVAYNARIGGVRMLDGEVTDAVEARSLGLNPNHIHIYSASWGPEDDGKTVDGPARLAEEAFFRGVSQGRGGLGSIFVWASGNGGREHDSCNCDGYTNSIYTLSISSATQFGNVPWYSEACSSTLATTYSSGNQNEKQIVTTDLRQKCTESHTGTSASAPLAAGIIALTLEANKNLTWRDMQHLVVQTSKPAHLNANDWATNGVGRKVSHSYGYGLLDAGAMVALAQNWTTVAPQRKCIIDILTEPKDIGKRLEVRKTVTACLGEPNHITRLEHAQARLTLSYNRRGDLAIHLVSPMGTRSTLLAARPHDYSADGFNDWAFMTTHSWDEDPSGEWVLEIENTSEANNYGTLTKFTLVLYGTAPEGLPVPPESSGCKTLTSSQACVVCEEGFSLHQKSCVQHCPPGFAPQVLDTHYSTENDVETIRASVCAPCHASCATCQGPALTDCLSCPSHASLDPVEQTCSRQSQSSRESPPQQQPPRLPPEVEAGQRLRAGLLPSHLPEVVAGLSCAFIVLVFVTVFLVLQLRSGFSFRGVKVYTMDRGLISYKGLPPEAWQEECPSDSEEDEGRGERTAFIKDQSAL
This is one part of the list. No count for the full screen is at hand.
Please give only the number in your answer, with no unit.

Example cases with answers are listed next.
{"RESIDUE_CODES": "CARSQPRGRRAGNASASA [HC188]", "MEASURED": 4.87}
{"RESIDUE_CODES": "CAEVWTSTWVAGNASASA [HC2188]", "MEASURED": 0.822}
{"RESIDUE_CODES": "CASQMETKLIAGNASASA [HC649]", "MEASURED": -0.0666}
{"RESIDUE_CODES": "CALREVPCHRAGNASASA [HC2425]", "MEASURED": -0.256}
{"RESIDUE_CODES": "CALVPCHRPSAGNASASA [HC2305]", "MEASURED": 0.32}
{"RESIDUE_CODES": "CAESENKVVIAGNASASA [HC1283]", "MEASURED": -1.31}

API: the following record is the query input.
Problem: Entry under review: CAYPPKPCGIAGNASASA [HC405] . Reported furin cleavage Z-score?
Solution: -0.00218
